For each record, write down the corresponding inhibition of growth at 3.9 µg/mL.
- Test system: Candida albicans
- EXPERIMENTAL_PROTOCOL: Growth inhibition of Candida albicans ATCC 10231 at 3.9 ug/ml incubated for 48 hrs under dark condition by broth microdilution assay relative to amphotericin B
- Type: functional
- PARTICULARS: ATCC 10231, 48 h, read-out: GI
Kindly answer with a numeric value in %, unit omitted.

Find the recorded inhibition of growth at 3.9 µg/mL belonging to `c1ccc(-c2cc(-c3ccccc3)c3c4c(ccc3n2)OCO4)cc1` and report it.
0

For `COc1cc2nc(-c3ccccc3)cc(-c3ccccc3)c2c(OC)c1OC` , what is its reported inhibition of growth at 3.9 µg/mL?
0

Please look up its inhibition of growth at 3.9 µg/mL: `Brc1ccc2nc(C3CCCCC3)cc(-c3ccccc3)c2c1`
0

Bench note: what inhibition of growth at 3.9 µg/mL did `COc1cc(-c2cc(-c3ccccc3)c3cc(Br)ccc3n2)cc(OC)c1OC` show?
0

Report inhibition of growth at 3.9 µg/mL for `Oc1ccc2nc(-c3ccccc3)cc(-c3ccccc3)c2c1` please.
0

Can you look up the measured inhibition of growth at 3.9 µg/mL of `O=C(O)c1ccc2nc(-c3ccccc3)cc(-c3ccccc3)c2c1` for me?
0

Endpoint output: inhibition of growth at 3.9 µg/mL of `COc1ccc2nc(-c3ccccc3)cc(-c3ccccc3)c2c1` . Value?
0

Item `O=[N+]([O-])c1cccc(-c2cc(-c3ccccc3)c3cc(Br)ccc3n2)c1` has what recorded inhibition of growth at 3.9 µg/mL?
0

Quick check: inhibition of growth at 3.9 µg/mL of `Fc1ccc(-c2cc(-c3ccccc3)c3cc(Br)ccc3n2)cc1` ?
0.19

Quick one: inhibition of growth at 3.9 µg/mL for `Brc1ccc2nc(-c3ccccc3)cc(-c3ccccc3)c2c1` ?
1.16

# get_value(readout='inhibition of growth at 3.9 µg/mL', item= `Oc1ccc(-c2cc(-c3ccccc3)c3cc(Br)ccc3n2)cc1` )
2.41

Source listed as ChEMBL document CHEMBL3875213.
